These entries and their values trace back to the supplement of paper PMC9588766.

tested on: PDC-DUC18828; experiment: cell viability of compound + 1 nM pemigatinib relative to pemigatinib-only (DMSO) wells (fraction); higher = less growth inhibition; conditions: first compound 1 µM; pemigatinib concentration 1 nM; 72 h
Over roughly 1,900 compounds, “cell viability of compound + 1 nM pemigatinib relative to pemigatinib-only (DMSO) wells” has its median near 0.95 nM; the lowest 2% begin near 0.22 nM. This is one part of a sample in which the lowest values are shown more often than they occur.
measureName: cell viability
API doc: respond with a numeric literal and nothing else, no unit.

Please review the following examples before continuing.
O=c1ccc2cc(O[C@@H]3O[C@H](CO)[C@@H](O)[C@H](O)[C@H]3O)c(O)cc2o1 [Esculin] + CCN1C(=O)N(c2c(F)c(OC)cc(OC)c2F)Cc2cnc3[nH]c(CN4CCOCC4)cc3c21	0.996
CN1CCCCC1Cn1cc(C(=O)c2cc([N+](=O)[O-])ccc2I)c2ccccc21 (stereo not given) + CCN1C(=O)N(c2c(F)c(OC)cc(OC)c2F)Cc2cnc3[nH]c(CN4CCOCC4)cc3c21	0.955
COc1cc(OC)c(OC)cc1C=O [Asaraldehyde] + CCN1C(=O)N(c2c(F)c(OC)cc(OC)c2F)Cc2cnc3[nH]c(CN4CCOCC4)cc3c21	0.933

**Q:** Find the measured cell viability of CN1c2ccccc2C(NCCCCCCC(=O)O)c2ccc(Cl)cc2S1(=O)=O (stereo not given) [Tianeptine sodium] + CCN1C(=O)N(c2c(F)c(OC)cc(OC)c2F)Cc2cnc3[nH]c(CN4CCOCC4)cc3c21 and report it.
**A:** 0.986

**Q:** Write down cell viability measured for item Cc1ccccc1-n1c(Cn2ncc3c(N)ncnc32)nc2cccc(C)c2c1=O + CCN1C(=O)N(c2c(F)c(OC)cc(OC)c2F)Cc2cnc3[nH]c(CN4CCOCC4)cc3c21
**A:** 0.912

**Q:** For the molecule COc1ccc(N(C(=O)Oc2c(C)cccc2C)c2ccnc(Nc3ccc(N4CCN(C)CC4)cc3)n2)c(OC)c1 + CCN1C(=O)N(c2c(F)c(OC)cc(OC)c2F)Cc2cnc3[nH]c(CN4CCOCC4)cc3c21 , give its measured cell viability value.
**A:** 0.982

====

Entries and their measured cell viability follow.
test system: PDC-DUC18828; test: cell viability of compound + 1 nM pemigatinib relative to pemigatinib-only (DMSO) wells (fraction); PDC-DUC18828 is a patient-derived cholangiocarcinoma cell line; higher = less growth inhibition; conditions: first compound 1 µM; pemigatinib concentration 1 nM; 72 h
Over roughly 1,900 compounds, “cell viability of compound + 1 nM pemigatinib relative to pemigatinib-only (DMSO) wells” has its median near 0.95 nM; the lowest 2% begin near 0.22 nM. The full list was thinned out, with the lowest values kept by preference.

O=[N+]([O-])c1ncc[nH]1 [Azomycin] + CCN1C(=O)N(c2c(F)c(OC)cc(OC)c2F)Cc2cnc3[nH]c(CN4CCOCC4)cc3c21	0.97
C[N+](C)(C)CCCCCCCCCC[N+](C)(C)C [Decamethonium Bromide] + CCN1C(=O)N(c2c(F)c(OC)cc(OC)c2F)Cc2cnc3[nH]c(CN4CCOCC4)cc3c21	0.94
NC(=O)CN1CC(O)CC1=O (centres undefined) [Oxiracetam] + CCN1C(=O)N(c2c(F)c(OC)cc(OC)c2F)Cc2cnc3[nH]c(CN4CCOCC4)cc3c21	0.995

Field: next molecule
**Q:** Return cell viability for the following molecule: CN1CCC(c2c[nH]c3ccc(O)cc23)CC1 + CCN1C(=O)N(c2c(F)c(OC)cc(OC)c2F)Cc2cnc3[nH]c(CN4CCOCC4)cc3c21
**A:** 0.932
